Entries and their measured Ki follow.
molecular target: Neuronal acetylcholine receptor subunit alpha-7 (Rattus norvegicus, UniProt Q05941); experiment: Displacement of [125I]alpha-bungarotoxin from rat cortical membrane alpha7-nAChR after 150 mins by gamma-counting analysis
Sequence (Q05941 whole entry): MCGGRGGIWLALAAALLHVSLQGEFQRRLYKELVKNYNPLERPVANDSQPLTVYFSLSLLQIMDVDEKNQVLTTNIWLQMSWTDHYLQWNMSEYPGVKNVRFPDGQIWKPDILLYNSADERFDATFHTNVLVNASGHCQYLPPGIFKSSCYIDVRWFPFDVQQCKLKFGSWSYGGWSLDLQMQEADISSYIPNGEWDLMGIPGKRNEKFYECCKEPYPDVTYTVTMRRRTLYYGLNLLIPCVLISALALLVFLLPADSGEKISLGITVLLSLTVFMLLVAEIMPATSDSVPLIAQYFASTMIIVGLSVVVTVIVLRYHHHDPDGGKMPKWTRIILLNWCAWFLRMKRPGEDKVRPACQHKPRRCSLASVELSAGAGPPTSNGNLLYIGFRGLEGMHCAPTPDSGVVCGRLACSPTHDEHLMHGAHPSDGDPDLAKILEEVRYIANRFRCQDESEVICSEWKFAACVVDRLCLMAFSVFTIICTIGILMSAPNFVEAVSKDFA
Entry rule: numbers only, all in nM.

In: Tell me the measured Ki of [11CH3]n1cccc1-c1nnc(N2CCN3CCC2CC3)o1 , please.
Out: 20.4

In: // next record [18F]c1ccc(-c2nnc(N3CCN4CCC3CC4)o2)cc1
Out: 38

In: Would you mind doing [18F]c1ccccc1-c1cnc2c(c1)CC1(CN3CCC1CC3)O2 (stereo not drawn) as well?
Out: 3.3

* * *

target: Neuronal acetylcholine receptor subunit alpha-7 (Rattus norvegicus); experiment: Binding affinity to rat brain alpha7 nAChR
endpoint: Ki

In: Given the compound [11CH3]N1CC2CN(c3ccc(-c4ccccc4)nn3)CC2C1 (stereo unspecified) , what is its reported Ki?
Out: 10.8 nM
